Entry source: PubChem BioAssay (NCI)

# procedure_text: NCI Yeast Anticancer Drug Screen. Data for the rad50EPP+ strain (AID 151);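 note: 0% = growth of vehicle-treated control cultures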
# test_parameters: S. cerevisiae rad50 mutant strain, at 100.0 µM, active compounds read high
About 79,000 compounds went through this panel and 15% of them were active in at least one assay; those are over-represented in the sample as a whole.
readout_name: growth inhibition (%)
Give the value in % but do not write % after it.

Input: Sample COC1=CCC23C(=O)C=CC(=O)C2(C1)C(=O)c1ccccc1C3=O (stereo unspecified) — what was its growth inhibition?
Output: 62

Input: # iterate: Nc1cc2c(cc1N)-c1ccccc1C2=O
Output: 70

Input: # iterate: COc1ccc2c3c1OC(C)C31CC(=O)CCC1CC2 (stereo unspecified)
Output: 4

Input: # iterate: COC(=O)c1ccccc1N=NNc1cccc(SC)c1
Output: 36

Input: # iterate: C1=CCN([B-](c2ccccc2)[C+]2CCCCC2)C=C1
Output: 22

Input: # iterate: COc1ccc(C(C)c2cc3c(cc2OC(C)O)OCO3)cc1 (stereo unspecified)
Output: 36

Input: # iterate: COc1ccc(C(C)c2cc3c(cc2OCC(C)=O)OCO3)cc1 (stereo unspecified)
Output: 11

Input: # iterate: CCCCS/C(=C(/C#N)C(N)=O)c1cc2c([nH]1)CCCC2
Output: 31

Input: # iterate: Oc1ccc(C2(c3ccc(O)cc3)CCCC2)cc1
Output: -4

Input: # iterate: N#CCCC1C(C#N)C2(Cl)CC1(Cl)C(Cl)=C2Cl (stereo unspecified)
Output: 84

Input: # iterate: CC1(c2ccccc2)O[C@@H]2C[C@H]3[C@@H]4CCC5=CC(=O)C=C[C@]5(C)[C@@]4(F)[C@@H](O)C[C@]3(C)[C@]2(C(=O)CO)O1 (stereo partly specified)
Output: 23
